Value source: patent US8362000B2

Quick list: log10 Kd per entry.
molecular target: mutant MGL (Homo sapiens, UniProt Q99685, L169S/L176S); experiment: MGL ThermoFluor assay - mutant; type: binding; conditions: ThermoFluor, compound concentration measured by qNMR, read-out: MGL mutant ThermoFluor qKd (μM) (using qNMR conc.)
Reminder: these figures are log10 of reported Kd, in µM before transformation.

# count of solved cases: 5
# compound, observed.value
records = [
    ("N#Cc1cccc(-n2ccc3cc(C(=O)N4CC(N5CCN(C(=O)c6nccs6)CC5)C4)ccc32)c1", -2.00),
    ("O=C(c1cc(-c2ccc(F)cc2)cs1)N1CC(N2CCN(C(=O)c3nccs3)CC2)C1", -0.75),
    ("O=C(c1nccs1)N1CCN(C2CN(C(=O)c3sc4cc(C(F)(F)F)c(F)cc4c3Cl)C2)CC1", -3.00),
    ("O=C(c1ccccc1)N1CCN(C2CN(C(=O)c3ccc4c(cnn4-c4cccc(OC(F)(F)F)c4)c3)C2)CC1", -1.06),
    ("O=C(c1cnc2c(ccn2-c2ccc(F)cc2)c1)N1CC(N2CCN(C(=O)c3nccs3)CC2)C1", -1.92),
]

// query log10 Kd value for entry `O=C(c1ccc(-c2cccc(C(F)(F)F)c2)cc1)N1CC(N2CCN(C(=O)c3ncco3)CC2)C1`
-2.10

// query log10 Kd value for entry `O=C(c1ccc2c(ccn2-c2cc(F)cc(F)c2)c1)N1CC(N2CCN(C(=O)c3nccs3)CC2)C1`
-2.52

// query log10 Kd value for entry `O=C(c1cc2ccc(-c3ccc(F)cc3)cc2[nH]1)N1CC(N2CCN(C(=O)c3nccs3)CC2)C1`
-0.60

// query log10 Kd value for entry `COc1cncc(-c2ccc3[nH]c(C(=O)N4CC(N5CCN(C(=O)c6nccs6)CC5)C4)c(C)c3c2)c1`
-2.00

// query log10 Kd value for entry `O=C(c1ccc2c(ccn2-c2ccc(OC(F)(F)F)cc2)c1)N1CC(N2CCN(C(=O)c3cscn3)CC2)C1`
-1.89

---

Quick list: Kd per entry.
Target: mutant MGL (Homo sapiens, UniProt Q99685, L169S/L176S)
Sequence (Q99685 1-303 L169S/L176S): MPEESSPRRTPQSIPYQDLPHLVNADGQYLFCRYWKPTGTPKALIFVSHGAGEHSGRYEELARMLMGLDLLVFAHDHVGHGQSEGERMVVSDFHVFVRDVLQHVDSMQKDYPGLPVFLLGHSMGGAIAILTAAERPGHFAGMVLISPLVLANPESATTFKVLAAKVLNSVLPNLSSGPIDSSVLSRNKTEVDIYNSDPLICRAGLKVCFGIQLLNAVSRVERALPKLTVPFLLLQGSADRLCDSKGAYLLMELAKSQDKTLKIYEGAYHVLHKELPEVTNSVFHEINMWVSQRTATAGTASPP
Assay: MGL ThermoFluor assay - mutant
Assay type: binding
Details: ThermoFluor concentration-response, read-out: MGL mutant ThermoFluor Kd
Respond with the bare value in µM.

# count of solved cases: 5
# compound, recorded.endpoint, readout.unit, observed.value
data = [
    ("CCN(CC)c1ccc(C(=O)N2CC(N3CCN(C(=O)c4ccccc4)CC3)C2)cc1", "Kd", "µM", 0.118),
    ("O=C(c1nccs1)N1CCN(C2CN(C(=O)c3cn(Cc4ccccc4)c4ccccc34)C2)CC1", "Kd", "µM", 0.333),
    ("CS(=O)(=O)c1ccc(C(=O)N2CC(N3CCN(C(=O)c4ccccc4)CC3)C2)cc1", "Kd", "µM", 6.67),
    ("O=C(c1cccc(-c2cccc(C(F)(F)F)c2)c1)N1CC(N2CCN(C(=O)c3nccs3)CC2)C1", "Kd", "µM", 0.24),
    ("O=C(c1cccc(CNc2ccccc2F)c1)N1CC(N2CCN(C(=O)c3nccs3)CC2)C1", "Kd", "µM", 0.083),
]

// query Kd value for entry `O=C(c1cc2cc(Br)cnc2o1)N1CC(N2CCN(C(=O)c3nccs3)CC2)C1`
2.41

// query Kd value for entry `O=C(c1ccc2oc(-c3ccccc3)nc2c1)N1CC(N2CCN(C(=O)c3cscn3)CC2)C1`
0.197

// query Kd value for entry `O=C(c1ccccc1)N1CCN(C2CN(C(=O)c3cc(-c4ccccc4)oc3C(F)(F)F)C2)CC1`
0.88

// query Kd value for entry O=C(c1nccs1)N1CC(N2CCN(C(=O)c3ccc(-c4ccccc4)cc3)C(Cc3ccccc3)C2)C1 (stereo not shown)
0.032

// query Kd value for entry `O=C(c1ccc(-c2ccccc2)cc1)N1CC(N2CCN(C(=O)c3ccc(Br)s3)CC2)C1`
0.286

// query Kd value for entry O=C(c1cscn1)N1CCN(C2CN(C(=O)[C@@H]3C[C@H]3c3ccc(SC(F)(F)F)cc3)C2)CC1 (racemic)
5.44

// query Kd value for entry O=C(c1ccccc1)N1CC(N2CCN(C(=O)c3cc4cc(C(F)(F)F)ccc4s3)C(c3ccccc3)C2)C1 (stereo not shown)
0.05

---

Target: MGL (Rattus norvegicus, UniProt Q8R431)
Construct: one g rat brain was homogenized using a Polytron homogenizer; from tissue; host or cells: rat brain homogenate
Sequence (Q8R431 1-303): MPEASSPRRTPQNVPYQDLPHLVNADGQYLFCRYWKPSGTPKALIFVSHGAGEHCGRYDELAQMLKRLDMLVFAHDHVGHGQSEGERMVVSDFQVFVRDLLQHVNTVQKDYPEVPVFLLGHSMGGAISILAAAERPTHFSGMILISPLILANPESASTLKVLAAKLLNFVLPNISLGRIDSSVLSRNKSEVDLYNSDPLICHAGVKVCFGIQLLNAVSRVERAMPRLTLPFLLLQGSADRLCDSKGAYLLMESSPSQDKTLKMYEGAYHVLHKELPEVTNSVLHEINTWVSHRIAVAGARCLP
Test: 2-AG accumulation assay in rat brain homogenate
Format: biochemical
Details: rat brain homogenate; compound 1 μM; 2-AG accumulation as percent of vehicle; read-out: Rat Brain 2AG % VehCntrl (%) @ 1 μM
Quick list: 2-AG accumulation, % of vehicle control at 1 µM per entry.
Respond with the bare value in %.

# count of solved cases: 8
# molecular.string, observed.value
rows = [
    ("O=C(c1cc2c(C(F)(F)F)cccc2s1)N1CC(N2CCN(C(=O)c3nccs3)CC2)C1", 904),
    ("Cc1cc(-c2ccc(Cl)c(C(F)(F)F)c2)ccc1C(=O)N1CC(N2CCN(C(=O)c3ccccc3)CC2)C1", 157),
    ("O=C(c1ccc(-c2ccccc2)cc1)N1CCN(C2CN(C(=O)c3ncco3)C2)CC1", 62),
    ("O=C(c1ccc2nc(-c3ccc(F)c(F)c3)oc2c1)N1CC(N2CCN(C(=O)c3nccs3)CC2)C1", 667),
    ("CC(C)(C)c1ccc(C(=O)N2CC(N3CCN(C(=O)c4nccs4)CC3)C2)cc1", 268),
    ("O=C(c1cc2cc(C(F)(F)F)ccc2s1)N1CCN(C2CN(C(=O)c3nccs3)C2)CC1", 437),
    ("Cc1cc(C(=O)N2CC(N3CCN(C(=O)c4nccs4)CC3)C2)ccc1-c1ccccc1", 457),
    ("O=C(c1ccc(CNc2cccc(Cl)c2)cc1)N1CC(N2CCN(C(=O)c3cscn3)CC2)C1", 515),
]

// query 2-AG accumulation, % of vehicle control at 1 µM value for entry `Cc1c(C(=O)N2CC(N3CCN(C(=O)c4nccs4)CC3)C2)sc2nc(C(F)(F)F)ccc12`
552

// query 2-AG accumulation, % of vehicle control at 1 µM value for entry `COc1cc(C(=O)N2CC(N3CCN(C(=O)c4ccccc4)CC3)C2)ccc1-c1ccccc1`
123

// query 2-AG accumulation, % of vehicle control at 1 µM value for entry `O=C(c1ccccc1)N1CCN(C2CN(C(=O)c3ccc(-c4ccccc4)cc3)C2)CC1`
156

---

Molecular target: purified wild type MGL (wt-MGLL 6H-11-313) (Homo sapiens)
Sequence (Q99685 1-303): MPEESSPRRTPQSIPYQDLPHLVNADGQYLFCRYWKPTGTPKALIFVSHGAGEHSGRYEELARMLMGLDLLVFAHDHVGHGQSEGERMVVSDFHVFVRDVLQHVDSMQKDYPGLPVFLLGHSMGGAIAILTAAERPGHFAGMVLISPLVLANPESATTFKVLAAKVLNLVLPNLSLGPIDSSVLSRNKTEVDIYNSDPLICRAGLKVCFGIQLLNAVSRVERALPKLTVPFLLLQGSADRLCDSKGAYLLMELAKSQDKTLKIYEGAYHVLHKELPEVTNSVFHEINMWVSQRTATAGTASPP
Quick list: IC50 per entry.

# count of solved cases: 3
# molecular.string, recorded.endpoint, observed.value
data = [
    ("O=C(c1ccc(-c2nc(-c3ccc(Cl)c(Cl)c3)cs2)cc1)N1CC(N2CCN(C(=O)c3nccs3)CC2)C1", "IC50", "< 5 nM"),
    ("O=C(c1nccs1)N1CCN(C2CN(C(=O)c3cccc4oc(-c5ccc(F)cc5)nc34)C2)CC1", "IC50", "827 nM"),
    ("Cc1c(C(=O)N2CC(N3CCN(C(=O)c4ccccc4)CC3)C2)oc2ccc(F)cc12", "IC50", "> 16700 nM"),
]

Continue with the compound presented below.
// query IC50 value for entry `CC1(C)C=C(c2ccc(C(=O)N3CC(N4CCN(C(=O)c5nccs5)CC4)C3)cc2)CC(C)(C)O1`
103 nM
